Ref: the kinase profiling compilation of Christmann-Franck et al. (2016)

Recorded kinase still bound, per cent of control values for a group of compounds are listed next.
Biological target: LATS2 (human) (UniProt Q9NRM7)
Sequence (Q9NRM7 whole entry, looked up): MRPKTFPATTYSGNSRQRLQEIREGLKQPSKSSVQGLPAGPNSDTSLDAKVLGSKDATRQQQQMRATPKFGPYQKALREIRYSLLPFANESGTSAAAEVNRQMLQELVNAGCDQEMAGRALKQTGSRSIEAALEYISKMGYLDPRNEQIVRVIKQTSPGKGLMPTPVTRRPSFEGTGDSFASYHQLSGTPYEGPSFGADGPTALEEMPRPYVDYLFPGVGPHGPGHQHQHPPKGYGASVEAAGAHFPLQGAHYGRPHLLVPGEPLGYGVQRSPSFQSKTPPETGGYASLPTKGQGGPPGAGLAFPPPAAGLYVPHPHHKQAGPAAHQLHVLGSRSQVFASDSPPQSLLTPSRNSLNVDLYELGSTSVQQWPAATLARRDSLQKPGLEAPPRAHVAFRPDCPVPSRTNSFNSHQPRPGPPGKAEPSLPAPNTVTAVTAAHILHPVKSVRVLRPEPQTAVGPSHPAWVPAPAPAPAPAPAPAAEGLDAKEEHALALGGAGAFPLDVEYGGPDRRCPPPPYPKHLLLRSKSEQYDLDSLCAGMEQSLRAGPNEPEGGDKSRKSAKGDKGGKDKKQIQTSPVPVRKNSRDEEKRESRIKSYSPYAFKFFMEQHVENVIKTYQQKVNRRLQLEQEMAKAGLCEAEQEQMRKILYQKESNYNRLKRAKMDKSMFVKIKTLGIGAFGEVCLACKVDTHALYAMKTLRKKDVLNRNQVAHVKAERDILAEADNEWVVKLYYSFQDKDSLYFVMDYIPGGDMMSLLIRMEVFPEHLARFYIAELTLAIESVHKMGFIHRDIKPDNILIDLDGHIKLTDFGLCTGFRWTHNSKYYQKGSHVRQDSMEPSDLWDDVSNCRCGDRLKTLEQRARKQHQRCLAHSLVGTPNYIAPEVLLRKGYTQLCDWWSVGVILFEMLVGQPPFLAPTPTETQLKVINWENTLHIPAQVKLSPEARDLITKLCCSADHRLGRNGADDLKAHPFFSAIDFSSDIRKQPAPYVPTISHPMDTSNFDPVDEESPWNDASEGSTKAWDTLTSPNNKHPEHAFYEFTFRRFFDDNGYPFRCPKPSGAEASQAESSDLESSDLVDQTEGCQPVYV
Test: KINOMEscan competition binding
Settings: compound 10.0 µM
Report as a plain number; the unit % is understood.

- STRUCTURE STRING: "CC(C)n1nc(-c2cc3cc(O)ccc3[nH]2)c2c(N)ncnc21"
  EXPERIMENTAL SYSTEM: "LATS2 (human) (UniProt Q9NRM7)"
  kinase still bound, per cent of control (%): 41

Give its kinase still bound, per cent of control value. Item: CCC(=O)N1CCN(c2ccc(-n3c(=O)ccc4cnc5ccc(-c6cnc7ccccc7c6)cc5c43)cc2C(F)(F)F)CC1
100

Give its kinase still bound, per cent of control value. Item: COc1ccc(-c2ccc3c(N4CCOCC4)nc(N4C[C@@H](C)O[C@@H](C)C4)nc3n2)cc1CO
89

Give its kinase still bound, per cent of control value. Item: COC(=O)Nc1ccc(-c2nc(N3CCOCC3)c3cnn(C4CCN(C(=O)OC)CC4)c3n2)cc1
86

---

Biological target: SRPK1 (human) (UniProt Q96SB4)
Sequence (Q96SB4 whole entry, looked up): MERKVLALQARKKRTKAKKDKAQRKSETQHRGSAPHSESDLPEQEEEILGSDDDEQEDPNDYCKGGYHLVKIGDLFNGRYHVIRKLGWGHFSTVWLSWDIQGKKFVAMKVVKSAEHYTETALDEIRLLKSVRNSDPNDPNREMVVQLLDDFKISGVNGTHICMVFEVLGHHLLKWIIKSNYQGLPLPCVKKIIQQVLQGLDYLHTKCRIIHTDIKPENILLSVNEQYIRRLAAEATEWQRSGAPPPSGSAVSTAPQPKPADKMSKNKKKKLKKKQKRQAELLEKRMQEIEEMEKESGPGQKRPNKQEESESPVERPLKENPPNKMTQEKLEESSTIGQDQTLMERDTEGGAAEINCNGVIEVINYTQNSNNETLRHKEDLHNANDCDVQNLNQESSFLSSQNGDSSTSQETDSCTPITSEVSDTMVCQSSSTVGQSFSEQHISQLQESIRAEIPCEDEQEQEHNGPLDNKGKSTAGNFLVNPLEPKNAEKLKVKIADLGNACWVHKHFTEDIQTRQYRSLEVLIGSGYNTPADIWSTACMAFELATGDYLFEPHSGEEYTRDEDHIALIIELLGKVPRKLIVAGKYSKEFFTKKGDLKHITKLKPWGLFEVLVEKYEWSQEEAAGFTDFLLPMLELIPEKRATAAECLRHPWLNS
Details: compound 1.0 µM
OBSERVATION TYPE: per cent of control

Past entries and their recorded results:
- STRUCTURE STRING: "COC(=O)Nc1ccc(-c2nc(N3CCOCC3)c3cnn(C4CCN(C(=O)OC)CC4)c3n2)cc1"
  OBSERVATION TYPE: "per cent of control"
  MEASURED RESULT: "109%"
- STRUCTURE STRING: "COc1ccc(-c2ccc3c(N4CCOCC4)nc(N4C[C@@H](C)O[C@@H](C)C4)nc3n2)cc1CO"
  OBSERVATION TYPE: "per cent of control"
  MEASURED RESULT: "101%"
- STRUCTURE STRING: "CC(C)n1nc(-c2cc3cc(O)ccc3[nH]2)c2c(N)ncnc21"
  OBSERVATION TYPE: "per cent of control"
  MEASURED RESULT: "86%"

Give its per cent of control value. Item: CCC(=O)N1CCN(c2ccc(-n3c(=O)ccc4cnc5ccc(-c6cnc7ccccc7c6)cc5c43)cc2C(F)(F)F)CC1
107%

---

Recorded kinase still bound, per cent of control values for a group of molecules are listed next.
Target: DDR1 (human)
Assay: KINOMEscan competition binding
Conditions: compound 10.0 µM
Report as a plain number; the unit % is understood.

- STRUCTURE STRING: "CCC(=O)N1CCN(c2ccc(-n3c(=O)ccc4cnc5ccc(-c6cnc7ccccc7c6)cc5c43)cc2C(F)(F)F)CC1"
  UNIT SYMBOL: "%"
  kinase still bound, per cent of control: 100
- STRUCTURE STRING: "COC(=O)Nc1ccc(-c2nc(N3CCOCC3)c3cnn(C4CCN(C(=O)OC)CC4)c3n2)cc1"
  UNIT SYMBOL: "%"
  kinase still bound, per cent of control: 100
- STRUCTURE STRING: "COc1ccc(-c2ccc3c(N4CCOCC4)nc(N4C[C@@H](C)O[C@@H](C)C4)nc3n2)cc1CO"
  UNIT SYMBOL: "%"
  kinase still bound, per cent of control: 85

We next turn to a different molecule, shown below.
Give its kinase still bound, per cent of control value. Item: CC(C)n1nc(-c2cc3cc(O)ccc3[nH]2)c2c(N)ncnc21
6.4
